Target: T1, CMG2 38-218 (Homo sapiens), P58335
T1 chain: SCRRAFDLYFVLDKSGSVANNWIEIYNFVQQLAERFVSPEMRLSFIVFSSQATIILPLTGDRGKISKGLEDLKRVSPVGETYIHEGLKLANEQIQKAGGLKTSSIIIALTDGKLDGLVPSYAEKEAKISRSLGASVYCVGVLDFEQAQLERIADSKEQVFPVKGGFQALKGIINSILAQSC
Test: microscale thermophoresis
Details: modification not given
QUANTITY_NAME: pKd
The meaning of pKd here: minus log10 of the concentration in molar units.

Q: # input binder: `CLRFT` ; wanted: its pKd
A: 4.52
